Data origin: patent US4459232A

# measured-on: histamine activation of adenylate cyclase
# assay-procedure: inhibition of histamine activation of adenylate cyclase in vesicles of guinea pig cerebral cortex
# assay-context: 50 micromolar histamine
parameter-measured: IC50

Entry CN1CCN(C2=Nc3ccccc3Cc3nccn32)CC1 — recorded IC50 = ~1000 nM
